As shown below, each of these compounds has a reported remaining activity at 1000 µM value.
molecular target: Murine recombinant poly(ADP-ribose)-polymerase 2 (Mus musculus, UniProt O88554); construct: made in house; test: autopoly(ADP-ribosyl)ation of PARP-2, [32P]NAD+ incorporation; format: biochemical; settings: in the presence of 1 mM compound; read-out: Residual PARP-2 activity (converted)
Sequence (O88554 whole entry): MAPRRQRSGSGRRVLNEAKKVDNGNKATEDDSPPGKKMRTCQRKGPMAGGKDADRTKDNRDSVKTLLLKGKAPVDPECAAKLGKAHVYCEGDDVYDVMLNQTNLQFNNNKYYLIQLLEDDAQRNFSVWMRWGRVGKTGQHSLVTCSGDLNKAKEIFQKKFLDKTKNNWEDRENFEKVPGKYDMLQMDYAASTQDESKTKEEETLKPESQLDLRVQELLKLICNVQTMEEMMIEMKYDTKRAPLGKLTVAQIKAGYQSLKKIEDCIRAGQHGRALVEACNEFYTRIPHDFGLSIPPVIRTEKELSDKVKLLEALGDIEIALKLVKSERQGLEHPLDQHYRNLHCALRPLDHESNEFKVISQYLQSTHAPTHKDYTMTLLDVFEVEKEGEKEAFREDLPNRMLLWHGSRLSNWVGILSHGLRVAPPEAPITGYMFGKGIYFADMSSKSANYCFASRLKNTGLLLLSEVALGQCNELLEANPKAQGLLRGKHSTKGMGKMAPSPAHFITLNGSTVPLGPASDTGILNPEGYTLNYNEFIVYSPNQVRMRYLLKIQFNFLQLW
Measured Quantity: remaining activity at 1000 µM (%)

>  <Compound>
O=c1ccn([C@H]2CNC[C@@H](CO)O2)c(=O)[nH]1 [Compound 11U]

>  <U>
%

>  <Assay Result>
97

$$$$
>  <Compound>
Nc1ncnc2c1ncn2C1OC(COP(=O)(O)OP(=O)(O)OCC2CNCC(n3ccc(=O)[nH]c3=O)O2)C(O)C1O (stereo not shown) [Compound 4U]

>  <U>
%

>  <Assay Result>
67

$$$$
>  <Compound>
Nc1ccn(C2CNCC(CNP(=O)(O)OP(=O)(O)OCC3OC(n4cnc5c(N)ncnc54)C(O)C3O)O2)c(=O)n1 (stereo not shown) [Compound 10C]

>  <U>
%

>  <Assay Result>
34.5

$$$$
>  <Compound>
Nc1ncnc2c1ncn2C1OC(COP(=O)(O)OP(=O)(O)OCC2CNCC(n3cc(Cl)c(=O)[nH]c3=O)O2)C(O)C1O (stereo not shown) [Compound 4ClU]

>  <U>
%

>  <Assay Result>
46.8

$$$$
>  <Compound>
Nc1ccn([C@H]2CNC[C@@H](CO)O2)c(=O)n1 [Compound 11C]

>  <U>
%

>  <Assay Result>
58

$$$$
>  <Compound>
Nc1ncnc2c1ncn2[C@H]1CNC[C@@H](CO)O1 [Compound 11A]

>  <U>
%

>  <Assay Result>
90

$$$$
>  <Compound>
Nc1ncnc2c1ncn2C1OC(COP(=O)(O)OP(=O)(O)NCC2CNCC(n3cc(Cl)c(=O)[nH]c3=O)O2)C(O)C1O (stereo not shown) [Compound 10ClU]

>  <U>
%

>  <Assay Result>
47

$$$$

###

molecular target: Murine recombinant poly(ADP-ribose)-polymerase 2 (Mus musculus, UniProt O88554); construct: made in house; assay: autopoly(ADP-ribosyl)ation of PARP-2, [32P]NAD+ incorporation; type: biochemical; details: in the presence of 1 mM compound
Below, each entry is listed alongside its reported Residual PARP-2 activity.
Measured Quantity: Residual PARP-2 activity

>  <Compound>
Nc1ccn([C@@H]2O[C@H](CO)[C@@H](O)[C@H]2O)c(=O)n1 [Cyd, reference compound]

>  <Measured Quantity>
Residual PARP-2 activity

>  <Assay Result>
85% ± 4%

$$$$
>  <Compound>
Nc1nc2c(ncn2[C@@H]2O[C@H](CO)[C@@H](O)[C@H]2O)c(=O)[nH]1 [Guo, reference compound]

>  <Measured Quantity>
Residual PARP-2 activity

>  <Assay Result>
46% ± 25%

$$$$
>  <Compound>
O=c1ccn([C@@H]2O[C@H](CO)[C@@H](O)[C@H]2O)c(=O)[nH]1 [Urd, reference compound]

>  <Measured Quantity>
Residual PARP-2 activity

>  <Assay Result>
96% ± 10%

$$$$
>  <Compound>
Nc1ncnc2c1ncn2[C@@H]1O[C@H](CO)[C@@H](O)[C@H]1O [Ado, reference compound]

>  <Measured Quantity>
Residual PARP-2 activity

>  <Assay Result>
86% ± 1%

$$$$
